Biological target: Human immunodeficiency virus type 1 reverse transcriptase (Human immunodeficiency virus 1) (UniProt Q72547)
Assay: Inhibition of Ribonuclease H activity of HIV-1 reverse transcriptase (at 200 uM)
MEASURED PROPERTY: Initial activity (%)
Give the value in % but do not write % after it.

Here is how some compounds turned out for Initial activity.
• O=C(Oc1cc(S(=O)(=O)O)cc2cc(S(=O)(=O)O)ccc12)c1ccc(-c2ccc(C(=O)Oc3cc(S(=O)(=O)O)cc4cc(S(=O)(=O)O)ccc34)cc2)cc1 = 0
• O=C(CCCCCCCCCCC(=O)Nc1ccc(S(=O)(=O)O)c2cccc(S(=O)(=O)O)c12)Nc1ccc(S(=O)(=O)O)c2cccc(S(=O)(=O)O)c12 = 16
• Cc1cc(C)c(S(=O)(=O)Oc2ccc3cccc(S(=O)(=O)O)c3c2)c(C)c1S(=O)(=O)Oc1ccc2cccc(S(=O)(=O)O)c2c1 = 23
• CCCCCCCCCCCCCCCC(=O)Oc1cc(S(=O)(=O)O)c2ccccc2c1N = 7.5
• Nc1ccc(S(=O)(=O)O)c2cccc(S(=O)(=O)O)c12 = 100

Prompt: Fill blank: measured Initial activity of the compound "CCCCCCCCCCCCCCCC(=O)Nc1c(OC(=O)CCCCCCCCCCCCCCC)cc(S(=O)(=O)O)c2ccccc12" is ____.
Completion: 5.3

Prompt: Field request: Initial activity | item: "O=C(CCCCCCC(=O)Nc1ccc(S(=O)(=O)O)c2ccccc12)Nc1ccc(S(=O)(=O)O)c2ccccc12"
Completion: 59

Prompt: Look up Initial activity: "O=C(CCCCCCCCC(=O)Nc1cc(S(=O)(=O)O)cc2cc(S(=O)(=O)O)cc(O)c12)Nc1cc(S(=O)(=O)O)cc2cc(S(=O)(=O)O)cc(O)c12"
Completion: 30

Prompt: Which Initial activity value is on record for "O=S(=O)(O)c1cccc2ccc(OS(=O)(=O)c3cccc4c(S(=O)(=O)Oc5ccc6cccc(S(=O)(=O)O)c6c5)cccc34)cc12" ?
Completion: 17
